Just for reference, paper PMC8310135 is where these values come from.

Test: in vitro
Conditions: human
Where a name gives a salt, the structure may show the parent alone.
Exercise: for every item that follows, state its recorded viability at 0.05 µM.
Record the value in %, omitting the unit from your answer.

Per the record, [N-]=[N+]=Nc1cn([C@@H]2O[C@H](CO)[C@@H](O)[C@H]2O)c(=O)[nH]c1=O [5-azidouridine] has viability at 0.05 µM of 104

Per the records, this compound ( COC1=CC(c2cc3ccccc3[nH]2)=N/C1=C\c1[nH]c(C)cc1C [Obatoclax] ) has viability at 0.05 µM equal to 130

GET /value?item= CN(C)CCCN1c2ccccc2CCc2ccc(Cl)cc21 [Clomipramine HCL] &field=viability at 0.05 µM returns 97

Sure, the documented viability at 0.05 µM for Cc1cccc(/C=N/Nc2cc(N3CCOCC3)nc(OCCc3ccccn3)n2)c1 [Apilimod] is 130

Reported viability at 0.05 µM for COc1ccc(-c2ccc3c(N4CCOC[C@@H]4C)nc(N4CCOC[C@@H]4C)nc3n2)cc1CO [AZD8055] was 86

viability at 0.05 µM for COC(=O)C1=C(C)NC(C)=C(C(=O)OC2CCCN(Cc3ccccc3)C2)C1c1cccc([N+](=O)[O-])c1 (stereo not drawn) [Benidipine] is 126

The measured viability at 0.05 µM associated with CN(C)C(=O)C(CCN1CCC(O)(c2ccc(Cl)cc2)CC1)(c1ccccc1)c1ccccc1 [Loperamide HCL] reads 99

response.value for O=c1cnn([C@@H]2O[C@H](CO)[C@@H](O)[C@H]2O)c(=O)[nH]1 [6-azauridine] (field: viability at 0.05 µM) = 98

// viability at 0.05 µM value for Nc1ncnc2c1nnn2[C@@H]1O[C@H](CO)[C@@H](O)[C@H]1O [8-azaadenosine] : 98

Measured viability at 0.05 µM, Cc1cn([C@@H]2O[C@H](CO)[C@@H](O)[C@H]2O)c(=O)nc1N [5-methylcytidine] : 96

// viability at 0.05 µM lookup, compound = CCOC(=O)c1c(CSc2ccccc2)n(C)c2cc(Br)c(O)c(CN(C)C)c12 [Arbidol] , result: 135

The reported value for C#Cc1cccc(Nc2ncnc3cc(OCCOC)c(OCCOC)cc23)c1 [Erlotinib] in terms of viability at 0.05 µM is 127

Notebook: CC(C)C(=O)OC[C@@]1(N=[N+]=[N-])O[C@@H](n2ccc(N)nc2=O)[C@H](OC(=O)C(C)C)[C@@H]1OC(=O)C(C)C [Balapiravir (R1626), Balapiravir] , viability at 0.05 µM read as 104

Notebook: CC(C)OC(=O)[C@H](C)N[P@](=O)(OC[C@H]1O[C@@H](n2ccc(=O)[nH]c2=O)[C@](C)(F)[C@@H]1O)Oc1ccccc1 [PSI-7977] , viability at 0.05 µM read as 101

Entry N#Cc1cn([C@@H]2O[C@H](CO)[C@@H](O)[C@H]2O)c2ncnc(N)c12 [Toyocamycin] — recorded viability at 0.05 µM = 97

For reference, reported viability at 0.05 µM for O=C(c1ccc(OCCN2CCCCC2)cc1)c1c(-c2ccc(O)cc2)sc2cc(O)ccc12 [Raloxifene (Evista), Raloxifene] stands at 139

Form: compound = CC(C)(C)c1nc(-c2cccc(NS(=O)(=O)c3c(F)cccc3F)c2F)c(-c2ccnc(N)n2)s1 [Dabrafenib] ; viability at 0.05 µM = 119

Sure, the documented viability at 0.05 µM for CN(C)C/C=C/C(=O)Nc1cc2c(Nc3ccc(F)c(Cl)c3)ncnc2cc1O[C@H]1CCOC1 [Afatinib] is 126

GET /value?item= CN[C@H]1CC[C@@H](c2ccc(Cl)c(Cl)c2)c2ccccc21 [Sertraline] &field=viability at 0.05 µM returns 122

Consider COc1c(C)c2c(c(O)c1C/C=C(\C)CCC(=O)O)C(=O)OC2 [Mycophenolic acid (MPA), Mycophenolic acid] . Its measured viability at 0.05 µM is 132

viability at 0.05 µM for O=C1C=CN([C@@H]2O[C@H](CO)[C@@H](O)[C@H]2O)C(=O)C1 [3-deazauridine] is 103

Lab note: measured viability at 0.05 µM of Cc1c(F)cc(C(=O)NC2CC2)cc1-c1ccc(C(=O)NCC(C)(C)C)cn1 [Losmapimod] was 113

Reported viability at 0.05 µM of Nc1ncn([C@@H]2O[C@H](CO)[C@@H](O)[C@H]2O)c(=O)n1 [5-azacytidine] : 96

For this compound ( OC(CNCC(O)C1CCc2cc(F)ccc2O1)C1CCc2cc(F)ccc2O1 (stereo not drawn) [Nebivolol] ), measured viability at 0.05 µM is 110

viability at 0.05 µM reading for CN1[C@@H]2CC[C@H]1C[C@@H](OC(c1ccccc1)c1ccccc1)C2 [Benztropine mesylate] : 126

Recorded viability at 0.05 µM (compound O=c1[nH]c(=O)n([C@@H]2O[C@H](CO)[C@@H](O)[C@H]2O)cc1Br [5-bromouridine] ): 97

Looking up COc1cc2ncnc(Nc3cccc(Cl)c3)c2cc1OC [Tyrphostin AG1478] , I see its viability at 0.05 µM listed as 120

So for Cc1c(-c2ccc(O)cc2)n(Cc2ccc(OCCN3CCCCCC3)cc2)c2ccc(O)cc12 [Bazedoxifene HCL] , the logged viability at 0.05 µM turned out to be 141

get_value(item= O=c1c(-c2ccc(O)cc2)coc2cc(O)cc(O)c12 [Genistein] , readout=viability at 0.05 µM) returns 123

Kindly note the recorded viability at 0.05 µM for O=C1C(O)=C([C@H]2CC[C@H](c3ccc(Cl)cc3)CC2)C(=O)c2ccccc21 [Atovaquone] , which is 129

----------
Give viability at 0.5 µM for every item shown.
Experiment: in vitro
Details: human
Structures can show the parent of a compound that is named as a salt.
The answer is to be given in %; state only the numeric part.

Noted for [N-]=[N+]=Nc1cn([C@@H]2O[C@H](CO)[C@@H](O)[C@H]2O)c(=O)[nH]c1=O : its viability at 0.5 µM reads 100

Lookup result for Clc1ccc(CSC(Cn2ccnc2)c2ccc(Cl)cc2Cl)cc1 (centres unmarked) [Sulconazole nitrate] ; measured viability at 0.5 µM: 131

Value of viability at 0.5 µM reported for the molecule CN1CCC[C@@H]1CCO[C@](C)(c1ccccc1)c1ccc(Cl)cc1 [Clemastine fumarate] is 116

For record CC/C(=C(\c1ccccc1)c1ccc(OCCN(C)C)cc1)c1ccccc1 [Tamoxifene citrate] the listed viability at 0.5 µM is 123

Field viability at 0.5 µM (entry CN(C)C(=O)C(CCN1CCC(O)(c2ccc(Cl)cc2)CC1)(c1ccccc1)c1ccccc1 [Loperamide HCL] ) reads 104

viability at 0.5 µM recorded for this molecule, NC(=O)c1ncn([C@@H]2O[C@H](CO)[C@@H](O)[C@H]2O)n1 , is 122

The molecule Cc1cccc(/C=N/Nc2cc(N3CCOCC3)nc(OCCc3ccccn3)n2)c1 showed viability at 0.5 µM equal to 115

Recorded result, Cc1cn([C@@H]2O[C@H](CO)[C@@H](O)[C@H]2O)c(=O)nc1N , viability at 0.5 µM: 97

The reported viability at 0.5 µM of the molecule NC(=O)c1nc(F)c[nH]c1=O was 104

GET /value?item= CC(C)OC(=O)[C@H](C)N[P@](=O)(OC[C@H]1O[C@@H](n2ccc(=O)[nH]c2=O)[C@](C)(F)[C@@H]1O)Oc1ccccc1 &field=viability at 0.5 µM returns 97

// field: viability at 0.5 µM; key: CN[C@H]1CC[C@@H](c2ccc(Cl)c(Cl)c2)c2ccccc21 ; value = 128

So for Nc1ncnc2c1nnn2[C@@H]1O[C@H](CO)[C@@H](O)[C@H]1O , the logged viability at 0.5 µM turned out to be 103

viability at 0.5 µM reading for O=C(c1ccc(OCCN2CCCCC2)cc1)c1c(-c2ccc(O)cc2)sc2cc(O)ccc12 [Raloxifene (Evista), Raloxifene] : 136

# viability at 0.5 µM (molecule: C#Cc1cccc(Nc2ncnc3cc(OCCOC)c(OCCOC)cc23)c1 ) is 126

viability at 0.5 µM reading for O=c1cnn([C@@H]2O[C@H](CO)[C@@H](O)[C@H]2O)c(=O)[nH]1 : 103

Just so you know, measured viability at 0.5 µM for COC1=CC(c2cc3ccccc3[nH]2)=N/C1=C\c1[nH]c(C)cc1C came out at 25

viability at 0.5 µM for Cc1cn([C@H]2C=C[C@@H](CO)O2)c(=O)[nH]c1=O is 98

----------
Experiment: in vitro
Conditions: human
testReadout: viability at 0.5 µM (%)
Report the value in % with no unit label.

Looking up CC(C)/N=c1\cc2n(-c3ccc(Cl)cc3)c3ccccc3nc-2cc1Nc1ccc(Cl)cc1 , I see its viability at 0.5 µM listed as 125

The reported viability at 0.5 µM of the compound CO[C@@H]1[C@H](O)[C@@H](CO)O[C@H]1n1ccc(N)nc1=O was 103

Record CC(C)(C)C(=O)OCOP(=O)(COCCn1cnc2c(N)ncnc21)OCOC(=O)C(C)(C)C , field viability at 0.5 µM: 94

Form field viability at 0.5 µM, entry Cc1ccc(NC(=O)c2ccc(CN3CCN(C)CC3)cc2)cc1Nc1nccc(-c2cccnc2)n1 : 96

viability at 0.5 µM recorded for this compound, NCC(=O)Nc1ccc(-n2nc(C(F)(F)F)cc2-c2ccc3c(ccc4ccccc43)c2)cc1 , is 115

Recorded result, O=c1c(-c2ccc(O)cc2)coc2cc(O)cc(O)c12 , viability at 0.5 µM: 111

# compound N#CC1(c2ccc(NC(=O)c3cccnc3NCc3ccncc3)cc2)CCCC1 ; its viability at 0.5 µM = 119

The compound Cc1c(F)cc(C(=O)NC2CC2)cc1-c1ccc(C(=O)NCC(C)(C)C)cn1 showed viability at 0.5 µM equal to 115

compound Nc1ncn([C@@H]2O[C@H](CO)[C@@H](O)[C@H]2O)c(=O)n1 , viability at 0.5 µM observed: 102

Looking up COc1ccc(-c2ccc3c(N4CCOC[C@@H]4C)nc(N4CCOC[C@@H]4C)nc3n2)cc1CO , I see its viability at 0.5 µM listed as 52
